- System: human erythrocytes
- testContext: red cells of human, 1 h
No end group written: not given here.
A collection of substances and their measured HC10
attributeMeasured: HC10 (µM)

# substance, targetEntity, readoutQualifier, observedValue
records = [
    ("KIGKFLLFKGIKKIGKFL-NH2 [KF3]", "human erythrocytes", ">", 64),
    ("RIGRWLLWRGIRRIGRWL-NH2 [RW3]", "human erythrocytes", "=", 3.81),
    ("RIGRVLLVRGIRRIGRVL-NH2 [RV3]", "human erythrocytes", ">", 64),
    ("KIGKWLLWKGIKKIGKWL-NH2 [KW3]", "human erythrocytes", "=", 2.69),
]
